# Measured On: recombinant human LDHB (Homo sapiens, UniProt P07195)
# Construct: purchased Abcam
# Sequence (P07195 whole entry): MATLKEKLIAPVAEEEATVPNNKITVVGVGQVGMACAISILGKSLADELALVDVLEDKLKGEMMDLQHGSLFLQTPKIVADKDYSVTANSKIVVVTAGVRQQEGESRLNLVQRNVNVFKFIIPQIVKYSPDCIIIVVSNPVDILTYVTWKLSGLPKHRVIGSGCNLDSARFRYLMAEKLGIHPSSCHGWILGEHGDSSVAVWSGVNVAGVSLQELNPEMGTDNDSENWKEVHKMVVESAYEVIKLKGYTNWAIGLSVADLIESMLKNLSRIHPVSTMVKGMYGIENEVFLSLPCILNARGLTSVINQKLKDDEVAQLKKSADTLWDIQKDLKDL
# Assay Protocol: hLDHB enzymatic activity assay (same fluorimetric protocol)
# Type: biochemical
# Condition Notes: mean ± SD of n = 3 replicates; read-out: hLDHB IC50
pIC50: −log10 of the molar value.
Quantity Name: pIC50

Reference set, count: 6
| Compound | Measured On | Quantity Name | Observed Result |
| --- | --- | --- | --- |
| COc1ccc(C23CC(C4=C(CC(c5ccc(Cl)cc5)OC4=O)O2)c2cc(Cl)ccc2O3)cc1OC (racemic) [(±)-69a] | recombinant human LDHB (Homo sapiens, UniProt P07195) | pIC50 | 3.85 |
| COc1ccc(C2CC3=C(C(=O)O2)C2CC(c4ccc(OC)c(OC)c4)(O3)Oc3ccc(Cl)cc32)cc1 (racemic) [(±)-70b] | recombinant human LDHB (Homo sapiens, UniProt P07195) | pIC50 | 3.53 |
| O=c1oc2ccccc2c2c1C1CC(c3ccc(O)c(O)c3)(Oc3ccc(Cl)cc31)O2 (racemic) [(±)-47] | recombinant human LDHB (Homo sapiens, UniProt P07195) | pIC50 | 4.84 |
| COc1ccc(C23CC(C4=C(CC(c5ccc(Cl)cc5)OC4=O)O2)c2cc(Cl)ccc2O3)cc1OC (racemic) [(±)-69b] | recombinant human LDHB (Homo sapiens, UniProt P07195) | pIC50 | 4.11 |
| COc1ccc(C23CC(c4cc([N+](=O)[O-])ccc4O2)c2c(c4ccccc4oc2=O)O3)cc1OC (racemic) [(±)-49] | recombinant human LDHB (Homo sapiens, UniProt P07195) | pIC50 | 3.67 |
| O=c1oc2ccccc2c2c1C1CC(c3ccc(O)cc3)(Oc3ccccc31)O2 (racemic) [(±)-51] | recombinant human LDHB (Homo sapiens, UniProt P07195) | pIC50 | 4.50 |

1: O=C1C2=C(C(=O)c3ccccc31)C1CC(c3ccc(O)c(O)c3)(O2)Oc2ccc(Cl)cc21 (racemic) [(±)-56]
2: COc1ccc(C23CC(C4=C(CC(c5ccccc5)OC4=O)O2)c2cc([N+](=O)[O-])ccc2O3)cc1OC (racemic) [(±)-65a]
3: COc1ccc(C23CC(C4=C(CC(c5ccc(Cl)cc5)OC4=O)O2)c2cc([N+](=O)[O-])ccc2O3)cc1OC (racemic) [(±)-66a]
4: COc1ccc(C2CC3=C(C(=O)O2)C2CC(c4ccc(OC)c(OC)c4)(O3)Oc3ccc([N+](=O)[O-])cc32)cc1 (racemic) [(±)-67b]
Prompt line: Reorder: pIC50, max to min. Return the labels ranked in the requested order, please.
Response line: 3, 4, 1, 2
(3: 4.55, 4: 4.27, 1: 3.92, 2: 3.57)

---

Quantity Name: melting point

Example cases with answers are listed next.
| Molecule | Observed Result |
| --- | --- |
| O=c1oc2ccccc2c2c1C1CC(c3ccc(O)c(O)c3)(Oc3ccc([N+](=O)[O-])cc31)O2 (racemic) [(±)-46] | 128 to 130 °C (dec.) |
| COc1ccc(C23CC(c4ccccc4O2)c2c(O)cc(O)cc2O3)cc1OC (racemic) [(±)-42] | 77 to 80 °C (dec.) |
| O=C1C2=C(C(=O)c3ccccc31)C1CC(c3ccc(O)c(O)c3)(O2)Oc2ccc([N+](=O)[O-])cc21 (racemic) [(±)-55] | 247 to 250 °C |

Now consider the entry below.
Prompt line: Please report the recorded melting point for COc1ccc(C23CC(c4cc(Cl)ccc4O2)c2c(c4ccccc4oc2=O)O3)cc1OC (racemic) [(±)-50] .
Response line: 130 to 133 °C

---

# Measured On: recombinant human LDHA (Homo sapiens, UniProt P00338)
# Construct: purchased Abcam
# Assay Protocol: hLDHA enzymatic activity assay (kinetic spectrofluorimetric, β-NADH fluorescence decrease)
# Assay type: biochemical
# Condition Notes: mean ± SD of n = 3 replicates; 1 mM pyruvate, 155 µM β-NADH, pH 7.3, 28 °C; read-out: hLDHA IC50
Quantity Name: IC50 (µM)

Please review the entries below; each comes with its answer.
| Compound | Measured On | Quantity Name | Measure Unit | Observed Result |
| --- | --- | --- | --- | --- |
| COc1ccc(C23CC(C4=C(CC(c5ccc(Cl)cc5)OC4=O)O2)c2cc(Cl)ccc2O3)cc1OC (racemic) [(±)-69b] | recombinant human LDHA (Homo sapiens, UniProt P00338) | IC50 | µM | 14.2 |
| COc1ccc(C2CC3=C(C(=O)O2)C2CC(c4ccc(OC)c(OC)c4)(O3)Oc3ccc(Cl)cc32)cc1 (racemic) [(±)-70b] | recombinant human LDHA (Homo sapiens, UniProt P00338) | IC50 | µM | 20.2 |

a: COc1ccc(C23CC(C4=C(CC(c5ccc(Cl)cc5)OC4=O)O2)c2cc(Cl)ccc2O3)cc1OC (racemic) [(±)-69a]
b: O=C1C2=C(C(=O)c3ccccc31)C1CC(c3ccc(O)c(O)c3)(O2)Oc2ccc(Cl)cc21 (racemic) [(±)-56]
Prompt line: Decide: a or b , by lowest recorded IC50. Could you answer with the label of the item you picked?
Response line: b
(b: 13.7 µM, a: 20 µM)

---

Consider the following molecules and their measured IC50 readings.
# Measured On: recombinant human LDHB (Homo sapiens)
# Construct: purchased Abcam
# Assay Protocol: hLDHB enzymatic activity assay (same fluorimetric protocol)
# Assay type: biochemical
# Condition Notes: mean ± SD of n = 3 replicates; read-out: hLDHB IC50
# Description: Briefly, the decrease in the coenzyme β-NADH fluorescence (λemission = 460 nm) was measured for 10 min, at different concentration of inhibitors, and its slope was compared with the one obtained when there were not inhibitors added (100% enzymatic activity). […]

| Molecule | Observed Result |
| --- | --- |
| COc1ccc(C23CC(c4cc(Cl)ccc4O2)c2c(c4ccccc4oc2=O)O3)cc1OC (racemic) [(±)-50] | > 300 µM |
| COc1ccc(C2CC3=C(C(=O)O2)C2CC(c4ccc(OC)c(OC)c4)(O3)Oc3ccc(Cl)cc32)cc1 (racemic) [(±)-70a] | > 300 µM |
| COc1ccc(C2CC3=C(C(=O)O2)C2CC(c4ccc(OC)c(OC)c4)(O3)Oc3ccccc32)cc1 (racemic) [(±)-64a] | > 300 µM |

Prompt line: Consider the molecule shown here: COc1ccc(C23CC(C4=C(CC(c5ccccc5)OC4=O)O2)c2cc([N+](=O)[O-])ccc2O3)cc1OC (racemic) [(±)-65b] What is its recorded IC50?
Response line: > 300 µM
